Origin of the recorded values: the supplement of paper PMC10127200

Test system: OVCAR4
Experiment: Euclidean distance of Cell Painting phenotypic profile (signed KS, 77 features) to DMSO centroid (dimensionless distance); higher = stronger phenotypic change vs DMSO (phenoactivity)
Settings: 48 h; 5 or 10 uM (library dependent)
Structures can show the parent of a compound that is named as a salt.
Listed next: entries and their corresponding Euclidean distance.
# print the numeric value only

Solved entries (count: 3):
compound=COc1cc([C@@H]2c3cc4c(cc3[C@H](O)[C@H]3COC(=O)[C@@H]23)OCO4)cc(OC)c1OC quantity_measured="Euclidean distance" reading=3.14
compound=CC[C@@]1(O)C(=O)OCc2c1cc1n(c2=O)Cc2cc3ccccc3nc2-1 quantity_measured="Euclidean distance" reading=3.96
compound="O=P1(N(CCCl)CCCl)NCCCO1 (stereo not given) [Cyclophosphamide Monohydrate]" quantity_measured="Euclidean distance" reading=1.07

Enquiry: Entry under review: CCCCCc1cc(O)cc(O)c1 . Reported Euclidean distance?
Return: 0.946

Enquiry: Entry under review: CN1[C@H]2C[C@H](OC(=O)[C@H](CO)c3ccccc3)C[C@@H]1[C@@H](O)C2 [Anisodamine Hydrobromide] . Reported Euclidean distance?
Return: 0.688

====

Listed next: entries and their corresponding Euclidean distance.
Test system: OVCAR4
Experiment: Euclidean distance of Cell Painting phenotypic profile (signed KS, 77 features) to DMSO centroid (dimensionless distance); higher = stronger phenotypic change vs DMSO (phenoactivity)
Conditions: 48 h; 5 or 10 uM (library dependent)
Counter-ions that a name gives are not always drawn.
# print the numeric value only

compound="c1ccc2c(c1)Sc1ccccc1N2CC1CN2CCC1CC2 (stereo unspecified) [Mequitazine]" quantity_measured="Euclidean distance" reading=1.19
compound="C#C[C@]1(OC(=O)CCCCCC)CC[C@H]2[C@@H]3CCC4=CC(=O)CC[C@@H]4[C@H]3CC[C@@]21C [Norethisterone Enanthate]" quantity_measured="Euclidean distance" reading=1.22
compound=O=C(O)CNC(=O)C1C(=O)N(C2CCCCC2)C(=O)N(C2CCCCC2)C1=O quantity_measured="Euclidean distance" reading=0.706
compound="C=CCN1CC[C@]23c4c5ccc(O)c4O[C@H]2C(=O)CC[C@@]3(O)[C@H]1C5 [Naloxone HCl]" quantity_measured="Euclidean distance" reading=0.689
compound="CN(C)Cc1c[nH]c2ccccc12 [Gramine]" quantity_measured="Euclidean distance" reading=1.45

Enquiry: Entry under review: C=CC(=O)N[C@H]1C=C(C)c2c(-c3cnc4ccccc4c3)c3c(N)ncnc3n2C1 . Reported Euclidean distance?
Return: 1.39

Enquiry: Entry under review: CNC1CC(N)C(O)C(OC2OC(CO)C(O)C3OC4(OC(C(N)CO)C(O)C(O)C4O)OC23)C1O (stereo unspecified) [Hygromycin B] . Reported Euclidean distance?
Return: 1.24

Enquiry: Entry under review: CCCCCCCCC(=O)NCc1ccc(O)c(OC)c1 [Nonivamide] . Reported Euclidean distance?
Return: 1.31

Enquiry: Entry under review: CC(Cc1ccc(O)cc1)NCC(O)c1cc(O)cc(O)c1 (stereo unspecified) [Fenoterol hydrobromide] . Reported Euclidean distance?
Return: 0.781

Enquiry: Entry under review: CC[N+](C)(CC)CCOC(=O)C(O)(c1ccccc1)c1ccccc1 [Methylbenactyzine Bromide] . Reported Euclidean distance?
Return: 1.45

Enquiry: Entry under review: C[C@]12CC[C@@H]3c4ccc(OC(=O)N(CCCl)CCCl)cc4CC[C@H]3[C@@H]1CC[C@@H]2OP(=O)(O)O [Estramustine phosphate sodium] . Reported Euclidean distance?
Return: 0.779

Enquiry: Entry under review: CC[C@H]1[C@@H]2C[C@H]3[C@@H]4N(C)c5ccccc5[C@]45C[C@@H]([C@@H]2[C@H]5O)N3[C@@H]1O [Ajmaline] . Reported Euclidean distance?
Return: 1.05

Enquiry: Entry under review: Cc1ccc(/N=C/N(C)/C=N/c2ccc(C)cc2C)c(C)c1 [Amitraz] . Reported Euclidean distance?
Return: 0.684

Enquiry: Entry under review: O=c1c2ccccc2[se]n1-c1ccccc1 [Ebselen] . Reported Euclidean distance?
Return: 1.42

Enquiry: Entry under review: CN1[C@@H]2CC(O)C[C@H]1[C@@H]1O[C@@H]12 (stereo partly specified) [Scopine HCl] . Reported Euclidean distance?
Return: 0.714

Enquiry: Entry under review: CC(=O)O[C@H]1CC[C@H]2[C@@H]3CCC4=CC(=O)CCC4=C3C=C[C@]12C [Trenbolone acetate] . Reported Euclidean distance?
Return: 0.778

Enquiry: Entry under review: C[CH2][Hg][S]c1ccccc1C(=O)[O-].[Na+] [Thimerosal] . Reported Euclidean distance?
Return: 2.69

Enquiry: Entry under review: NCCc1c[nH]c2ccc(O)cc12 [Serotonin HCl] . Reported Euclidean distance?
Return: 1.71

Enquiry: Entry under review: O=C(O)CCCc1ccc(N(CCCl)CCCl)cc1 [Chloroambucil] . Reported Euclidean distance?
Return: 1.49

Enquiry: Entry under review: COc1ccc(C(CN(C)C)C2(O)CCCCC2)cc1 (stereo unspecified) [Venlafaxine] . Reported Euclidean distance?
Return: 1.02
